- Tested on: MV-4-11
- TEST_DESCRIPTION: Tumor cell proliferation inhibition (CellTiter-Meiluncell Luminescent Cell Viability Assay)
- Format: cell-based
- EXPERIMENTAL_CONDITIONS: Homo sapiens, MV4-11, 10 nM, 96 hours, Table I-2, ALK inhibitors, read-out: Inhibition Rate at 10 nM (%)
QUANTITY_NAME: inhibition at 0.01 µM

• COc1cc(N2CCC(N(C)Cc3ccc4c(c3)C(=S)N(C3CCC(=O)NC3=O)C4)CC2)ccc1Nc1ncc(Cl)c(Nc2ccccc2P(C)(C)=O)n1 (stereo not shown) = 10 to 20%
• Cc1cc(Nc2ncc(Cl)c(Nc3ccccc3S(=O)(=O)C(C)C)n2)c(OC(C)C)cc1C1CCN(Cc2cccc3c2CN(C2CCC(=O)NC2=O)C3=S)CC1 (stereo not shown) = 40 to 50%
• COc1cc(N2CCN(Cc3cccc4c3CN(C3CCC(=O)NC3=O)C4=S)CC2)ccc1Nc1ncc(Cl)c(Nc2ccccc2P(C)(C)=O)n1 (stereo not shown) = 0 to 10%
• Cc1cc(Nc2ncc(Cl)c(Nc3ccccc3S(=O)(=O)C(C)C)n2)c(OC(C)C)cc1C1CCN(Cc2ccc3c(c2)CN(C2CCC(=O)NC2=O)C3=S)CC1 (stereo not shown) = 0 to 10%
• COc1cc(N2CCN(Cc3ccc4c(c3)CN(C3CCC(=O)NC3=O)C4=S)CC2)ccc1Nc1ncc(Cl)c(Nc2ccccc2P(C)(C)=O)n1 (stereo not shown) = 10 to 20%
• COc1cc(N2CCN(Cc3ccc4c(c3)C(=S)N(C3CCC(=O)NC3=O)C4)CC2)ccc1Nc1ncc(Cl)c(Nc2ccccc2P(C)(C)=O)n1 (stereo not shown) = 50 to 60%
• C[C@H]1Oc2cc(cnc2N)-c2c(nn(C)c2C#N)CN(C)C(=O)c2ccc(F)cc21 [lorlatinib, reference compound] = -20 to -10%

---

Parameter: inhibition at 0.5 µM. Scope: all listed entries.
- MEASURED_TARGET: human Cereblon WT GST-tagged protein (Homo sapiens)
- Construct: purchased CISBIO 64BDCRBNPEH
- Sequence (Q96SW2 whole entry): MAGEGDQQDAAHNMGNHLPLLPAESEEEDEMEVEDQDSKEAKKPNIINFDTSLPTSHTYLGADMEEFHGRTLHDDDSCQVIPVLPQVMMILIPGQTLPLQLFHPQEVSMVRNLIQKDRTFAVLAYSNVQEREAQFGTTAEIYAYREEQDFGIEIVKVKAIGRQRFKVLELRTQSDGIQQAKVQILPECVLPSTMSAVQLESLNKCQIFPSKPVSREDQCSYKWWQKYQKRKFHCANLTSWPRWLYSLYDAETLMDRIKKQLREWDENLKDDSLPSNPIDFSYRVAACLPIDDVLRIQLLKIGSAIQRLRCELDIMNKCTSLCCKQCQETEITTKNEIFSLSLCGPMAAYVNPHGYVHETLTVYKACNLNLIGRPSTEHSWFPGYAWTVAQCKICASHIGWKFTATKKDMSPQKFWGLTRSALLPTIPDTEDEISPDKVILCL
- TEST_DESCRIPTION: CRBN-binding affinity, HTRF (CEREBLON BINDING kit)
- EXPERIMENTAL_CONDITIONS: read-out: Inhibition Rate at 0.5 µM (%)
QUANTITY_NAME: inhibition at 0.5 µM

• Cn1ncc(Cl)c1-c1cc(C(=O)N[C@@H](Cc2ccc(F)c(F)c2)CN2CCN(Cc3ccc4c(c3)CN(C3CCC(=O)NC3=O)C4=S)CC2)oc1Cl (stereo partly drawn) [GT-08896] = 53 to 60%
• CN(c1cccc(CNc2nc(Nc3ccc(N4CCN(Cc5ccc6c(c5)CN(C5CCC(=O)NC5=O)C6=S)CC4)cc3)ncc2C(F)(F)F)c1)S(C)(=O)=O (stereo not drawn) [GT-08781] = 53 to 60%
• Nc1ncnc2c1c(-c1ccc(Oc3ccccc3)cc1)nn2C1CCN(Cc2ccc3c(c2)C(=S)N(C2CCC(=O)NC2=O)C3)CC1 (stereo not drawn) [GT-09441] = 40 to 53%
• C=CC(=O)N1CCC[C@@H](n2nc(-c3ccc(Oc4ccccc4)cc3)c3c(N)ncnc32)C1 [ibrutinib, Ibrutinib, reference compound] = 0 to 10%
• O=C1CCC(N2Cc3cc(CN4CCN(c5ccc(-c6ccc7c8cnccc8n(C(F)F)c7c6)cn5)CC4)ccc3C2=S)C(=O)N1 (stereo not drawn) [GT-08979] = 53 to 60%
• CN(c1cccc(CNc2nc(Nc3ccc(N4CCN(Cc5cccc6c5CN(C5CCC(=O)NC5=O)C6=S)CC4)cc3)ncc2C(F)(F)F)c1)S(C)(=O)=O (stereo not drawn) [GT-08883] = 40 to 53%
• COc1cc2nn(C3CCN(Cc4ccc5c(c4)CN(C4CCC(=O)NC4=O)C5=S)CC3)cc2cc1NC(=O)c1cccc(C(F)(F)F)n1 (stereo not drawn) [GT-05296] = 60 to 80%
• Cn1c2ccncc2c2ccc(-c3ccc(N4CCN(Cc5ccc6c(c5)CN(C5CCC(=O)NC5=O)C6=S)CC4)nc3)cc21 (stereo not drawn) [GT-08982] = 60 to 80%
• Cc1cc(-c2ccc3c4cnccc4n(C)c3c2)cnc1N1CCN(Cc2ccc3c(c2)CN(C2CCC(=O)NC2=O)C3=S)CC1 (stereo not drawn) [GT-08980] = 40 to 53%
• Cc1cc(Nc2ncc(Cl)c(Nc3ccccc3S(=O)(=O)C(C)C)n2)c(OC(C)C)cc1C1CCN(Cc2cccc3c2CN(C2CCC(=O)NC2=O)C3=S)CC1 (stereo not drawn) [GT-08676] = 40 to 53%
• CN(C)C(=O)c1cc2cnc(Nc3ccc(N4CCN(Cc5ccc6c(c5)C(=S)N(C5CCC(=O)NC5=O)C6)CC4)cn3)nc2n1C1CCCC1 (stereo not drawn) [GT-09427] = 60 to 80%
• O=C1CCC(N2Cc3c(CN4C[C@H]5C[C@@H]4CN5c4ccc(-c5cc(F)c6c(c5)C(=O)N(C(C(=O)Nc5nccs5)c5ncn7c5CCC7)C6)cc4)cccc3C2=S)C(=O)N1 (stereo partly drawn) [GT-08760] = 30 to 40%
